Reported folding stability dG unfold values for the following sequences.
Test: folding stability dG unfold from chymotrypsin proteolysis; higher = more stable

Some sequences with known folding stability dG unfold results, for comparison:
seqText	result
SAGGSAGGSKPGEVYEVKVKIKDKETGKYYEVKVKVYRLEDGTLLIEVDGKIFEVPVKDIEIESAGGSAGGS [r12_790_TrROS_Hall]	4.2 kcal/mol
SGMDSNPKTTTENISFEEALKRLPSSVTSVEPRGESVVIKQSSPDSLTVVTMTRDPSSDSAPATTTTYLSSA [r9_604_JUSTAS]	0.181 kcal/mol
SAGGSAGGSAGSYPIEYIPAPPDRLWLIDPKNGKIYEIYLDPERGEYSFEEIKEFPLGLESAGGSAGGSAGG [r11_352_JUSTAS]	1.66 kcal/mol
SAGKVKIEVEEVPPNVKKVKVESLEELLEAAKKLPPGAVVEVELEDGSKVTVVLNKDGKVVEVKKEPVPSAG [r5_506_TrROS_Hall]	0.9 kcal/mol

Query sequence follows.
Value of folding stability dG unfold reported for the sequence SAGGPGRMREREFEIEFPFEPGQSIEDALRELIGLPPGIQIEDIKVEVDPEDGWVKISVTITVYDPNDSAGG [r13_828_TrROS] is 1.29 kcal/mol
